The origin of these recorded values is the supplement of paper PMC12592484.

tested on: CAF#5 (primary prostate cancer-associated fibroblasts of myCAF-like type); assay: drug sensitivity score (DSS2, normalised partial AUC of dose-response, 72 h CellTiter-Glo viability) (DSS (dimensionless)); higher = more sensitive (stronger growth inhibition / cytotoxicity); extreme values may be limits of the assay
measured.metric: drug sensitivity score

Observe how each entry below is paired with its result.
compound: CC[C@]1(O)C[C@@H]2CN(CCc3c([nH]c4ccccc34)[C@@](C(=O)OC)(c3cc4c(cc3OC)N(C)[C@H]3[C@@](O)(C(=O)OC)[C@H](OC(C)=O)[C@]5(CC)C=CCN6CC[C@]43[C@@H]65)C2)C1 [Vinblastine] (tested concentration range 0.1-1000 nM)
target.or.test.system: CAF#5
result: 5.2
//
compound: CO[C@@H]1[C@H](N(C)C(=O)c2ccccc2)C[C@H]2O[C@]1(C)n1c3ccccc3c3c4c(c5c6ccccc6n2c5c31)C(=O)NC4 [Midostaurin] (tested concentration range 1-10000 nM)
target.or.test.system: CAF#5
result: 16.5
//
compound: CC(=O)O[C@H]1C(=O)[C@@]2(C)[C@H]([C@H](OC(=O)c3ccccc3)[C@]3(O)C[C@H](OC(=O)[C@H](O)[C@@H](NC(=O)c4ccccc4)c4ccccc4)C(C)=C1C3(C)C)[C@]1(OC(C)=O)CO[C@@H]1C[C@@H]2O [Paclitaxel] (tested concentration range 0.1-1000 nM)
target.or.test.system: CAF#5
result: 15.4
//
compound: C[C@]12CC[C@@H]3c4ccc(O)cc4C[C@@H](CCCCCCCCC[S+]([O-])CCCC(F)(F)C(F)(F)F)[C@H]3[C@@H]1CC[C@@H]2O (stereo not given in full) [Fulvestrant] (tested concentration range 0.1-1000 nM)
target.or.test.system: CAF#5
result: 0
//
compound: Nc1cc(F)ccc1NC(=O)c1ccc(CNC(=O)/C=C/c2cccnc2)cc1 [Tucidinostat] (tested concentration range 1-10000 nM)
target.or.test.system: CAF#5
result: 10.1
//
compound: CCN(CC)CCCC(C)Nc1c2ccc(Cl)cc2nc2ccc(OC)cc12 (stereo not given) [Mepacrine] (tested concentration range 5-50000 nM)
target.or.test.system: CAF#5
result: 13.4
//
compound: CS(=O)(=O)CCNCc1ccc(-c2ccc3ncnc(Nc4ccc(OCc5cccc(F)c5)c(Cl)c4)c3c2)o1 [Lapatinib] (tested concentration range 0.1-1000 nM)
target.or.test.system: CAF#5
result: 0
//
compound: CC(=O)Nc1cccc(-n2c(=O)n(C3CC3)c(=O)c3c(Nc4ccc(I)cc4F)n(C)c(=O)c(C)c32)c1 [Trametinib] (tested concentration range 0-250 nM)
target.or.test.system: CAF#5
result: 2.7

Record summary for CO[C@@H](C)Cn1c(=O)n(C)c2cnc3ccc(-c4cncc(C(C)(C)O)c4)cc3c21 (tested concentration range 0.2-2500 nM) : reported drug sensitivity score = 14.5

Record summary for Nc1cc(COc2c(Cl)cc(C[C@H](N)C(=O)O)cc2Cl)c2oc(-c3ccccc3)nc2c1 [JPH203] (tested concentration range 0.5-5000 nM) : reported drug sensitivity score = 1

Record summary for C/C=C1\NC(=O)[C@H]2CSSCC/C=C/[C@H](CC(=O)N[C@H](C(C)C)C(=O)N2)OC(=O)[C@H](C(C)C)NC1=O [Romidepsin] (tested concentration range 0.1-1000 nM) : reported drug sensitivity score = 25
